The following molecules are listed with their measured MTS assay result, run 1 values.
Test system: MiaPaCa-2 cells
Test: MTS assay of MiaPaCa2 cultures, single 50 μM dose
Assay type: cell-based, human
Details: MiaPaCa2, 50 μM, 72 hours, run 1
measured-property: MTS assay result, run 1

molecule: CC(C)=CCC/C(C)=C/CC/C(C)=C/CC[C@]1(C)CCc2c(C)c(O)cc(C)c2O1 [T3 beta, beta tocotrienol]
measured-number: 0.349

molecule: Cc1c(C)c2c(c(C)c1OC(=O)CCC(=O)O)CC[C@@](C)(CCC[C@H](C)CCC[C@H](C)CCCC(C)C)O2 [TS, tocopherol succinate]
measured-number: 0.998

molecule: CC(C)=CCC/C(C)=C/CC/C(C)=C/CC[C@]1(C)CCc2cc(O)c(C)c(C)c2O1 [T3 gamma, gamma tocotrienol]
measured-number: 0.776

molecule: O=C(O)CCC(=O)O [SA, succinic acid]
measured-number: 0.596

molecule: CC(C)=CCC/C(C)=C/CC/C(C)=C/CC/C(C)=C/CO [GG, geranylgeraniol]
measured-number: 0.784

molecule: CC(C)=CCC/C(C)=C/CC/C(C)=C/CC[C@]1(C)CCc2cc(O)cc(C)c2O1 [T3 delta, delta tocotrienol]
measured-number: 0.667

molecule: Cc1c(C)c2c(c(C)c1O)CC[C@@](C)(CCC[C@H](C)CCC[C@H](C)CCCC(C)C)O2 [T alpha, alpha tocopherol]
measured-number: 0.523

molecule: Cc1c(O)cc2c(c1C)O[C@](C)(CCC[C@H](C)CCC[C@H](C)CCCC(C)C)CC2 [T gamma]
measured-number: 0.5

----------
Tested on: MiaPaCa-2 cells
Assay: MTS assay of MiaPaCa2 cultures, single 50 μM dose
Format: cell-based, human
Details: MiaPaCa2, 50 μM, 72 hours, run 4
Mark 1 only for MTS assay result, run 4 values smaller than 0.5; exact matches and larger values are -1.

compound: CC(C)=CCC/C(C)=C/CC/C(C)=C/CC[C@]1(C)CCc2cc(O)c(C)c(C)c2O1
assayed-target: MiaPaCa-2 cells
qualitative-label: -1
--
compound: Cc1c(C)c2c(c(C)c1O)CC[C@@](C)(CCC[C@H](C)CCC[C@H](C)CCCC(C)C)O2
assayed-target: MiaPaCa-2 cells
qualitative-label: 1
--
compound: CC(C)=CCC/C(C)=C/CC/C(C)=C/CC/C(C)=C/CO
assayed-target: MiaPaCa-2 cells
qualitative-label: -1
--
compound: CC(C)=CCC/C(C)=C/CC/C(C)=C/CC[C@]1(C)CCc2c(C)c(O)cc(C)c2O1
assayed-target: MiaPaCa-2 cells
qualitative-label: 1
--
compound: O=C(O)CCC(=O)O
assayed-target: MiaPaCa-2 cells
qualitative-label: -1
--
compound: Cc1c(C)c2c(c(C)c1OC(=O)CCC(=O)O)CC[C@@](C)(CCC[C@H](C)CCC[C@H](C)CCCC(C)C)O2 [TS, tocopherol succinate]
assayed-target: MiaPaCa-2 cells
qualitative-label: -1
--
compound: CC(C)=CCC/C(C)=C/CC/C(C)=C/CC[C@]1(C)CCc2cc(O)cc(C)c2O1
assayed-target: MiaPaCa-2 cells
qualitative-label: -1

----------
System: MiaPaCa-2 cells
Experiment: MTS assay of MiaPaCa2 cultures, single 50 μM dose
Format: cell-based, human
Details: MiaPaCa2, 50 μM, 48 hours, run 1
The following compounds are listed with their measured MTS assay result, run 1 values.

compound: CC(C)=CCC/C(C)=C/CC/C(C)=C/CC[C@]1(C)CCc2cc(O)c(C)c(C)c2O1 [T3 gamma, gamma tocotrienol]
MTS assay result, run 1: 0.095

compound: Cc1c(C)c2c(c(C)c1O)CC[C@@](C)(CCC[C@H](C)CCC[C@H](C)CCCC(C)C)O2 [T alpha, alpha tocopherol]
MTS assay result, run 1: 0.308

compound: O=C(O)CCC(=O)O [SA, succinic acid]
MTS assay result, run 1: 0.334

compound: Cc1c(C)c2c(c(C)c1OC(=O)CCC(=O)O)CC[C@@](C)(CCC[C@H](C)CCC[C@H](C)CCCC(C)C)O2 [TS, tocopherol succinate]
MTS assay result, run 1: 0.257

compound: CC(C)=CCC/C(C)=C/CC/C(C)=C/CC[C@]1(C)CCc2c(C)c(O)cc(C)c2O1 [T3 beta, beta tocotrienol]
MTS assay result, run 1: 0.193

compound: Cc1c(O)cc2c(c1C)O[C@](C)(CCC[C@H](C)CCC[C@H](C)CCCC(C)C)CC2 [T gamma]
MTS assay result, run 1: 0.329

compound: CC(C)=CCC/C(C)=C/CC/C(C)=C/CC/C(C)=C/CO [GG, geranylgeraniol]
MTS assay result, run 1: 0.154

compound: CC(C)=CCC/C(C)=C/CC/C(C)=C/CC[C@]1(C)CCc2cc(O)cc(C)c2O1 [T3 delta, delta tocotrienol]
MTS assay result, run 1: 0.229

Each recorded value in this set is attributed to patent US8846653B2.
